Data origin: the OligoGym collection

Would you kindly list sensor-assay potency score (higher = more potent) for each of these sequences?
Biological target: F2R
Assay: pooled miR-30 sensor sort-seq; sequence = guide strand; further: reference of the scale not given here
Settings: shRNA
Reply briefly: the number, and no unit.

Which sensor-assay potency score (higher = more potent) is listed for TTGGCTTATGTGTACAGTGTGT ? -0.314

Which sensor-assay potency score (higher = more potent) is listed for TTATTGATGGAGACTAATCTGT ? -0.475

Which sensor-assay potency score (higher = more potent) is listed for TTACTTGCCATCAACTGCCCAC ? -0.043

Which sensor-assay potency score (higher = more potent) is listed for AAACACTAGAACTTCTACGCAC ? 0.254

Which sensor-assay potency score (higher = more potent) is listed for TAATAGCTGATCTTAAAGGGGA ? -0.239

Which sensor-assay potency score (higher = more potent) is listed for ACAAACAGCACATCTGCCGTGG ? -0.289

Which sensor-assay potency score (higher = more potent) is listed for TATCACATTCTGCTTTGCCAGT ? -0.848

Which sensor-assay potency score (higher = more potent) is listed for TTAATAACTTAAACCTTGCCGT ? 0.203

Which sensor-assay potency score (higher = more potent) is listed for TAGGATATCACATTCTGCTTTG ? -0.448

Which sensor-assay potency score (higher = more potent) is listed for TTACACATACATCACACTCTAT ? -0.0427

Which sensor-assay potency score (higher = more potent) is listed for TTTCATGGTCATTACCTCCTAG ? 0.0335

Which sensor-assay potency score (higher = more potent) is listed for TACACCACAGCCAGAAACCGGT ? -0.606

Which sensor-assay potency score (higher = more potent) is listed for TAACACCGTCATCTCGTCCTGT ? -0.174

Which sensor-assay potency score (higher = more potent) is listed for TTATTCAGGTTACTAGAGCAGG ? -0.622

====

Would you kindly list sensor-assay potency score (higher = more potent) for each of these sequences?
Target: STRBP
Test: pooled miR-30 sensor sort-seq; sequence = guide strand
Conditions: shRNA
Reply briefly: the number, and no unit.

Which sensor-assay potency score (higher = more potent) is listed for TTACACATGATTTTAATCCATT ? -0.986

Which sensor-assay potency score (higher = more potent) is listed for TTGAGTTTGAAGACACTGTTTC ? -0.227

Which sensor-assay potency score (higher = more potent) is listed for TAACAGAACCATTCTCTTGGGT ? 0.367

Which sensor-assay potency score (higher = more potent) is listed for TTCTTCTCCAATTCGTCCCTAA ? 0.053

Which sensor-assay potency score (higher = more potent) is listed for TTTGAGACTCTATACATCCTTC ? -0.328

Which sensor-assay potency score (higher = more potent) is listed for TAAAACTTAAACTTTGAACTGC ? 0.571

====

Target: SPESP1
Experiment: pooled miR-30 sensor sort-seq; sequence = guide strand
Conditions: shRNA
If the reported sensor-assay potency score (higher = more potent) equals or exceeds -0.4, assign rule met. If not, assign rule not met.

Please tell me: is the sequence TTGTTTGGTTTGATCGACCAGA at or over -0.4 in terms of sensor-assay potency score (higher = more potent)? rule met

Please tell me: is the sequence TCCATGTGTAACTAGCTCCTTA at or over -0.4 in terms of sensor-assay potency score (higher = more potent)? rule not met

Please tell me: is the sequence TTTTATTACTTGTTCGTCCTAC at or over -0.4 in terms of sensor-assay potency score (higher = more potent)? rule met

Please tell me: is the sequence TTGTTTTTAATTTATGTTCTGC at or over -0.4 in terms of sensor-assay potency score (higher = more potent)? rule met

Please tell me: is the sequence TATTGAATACTGTAGCAGCTTT at or over -0.4 in terms of sensor-assay potency score (higher = more potent)? rule met
